Parameter GI50: see the listing below.
System: SK-MEL-5
experiment_summary: NCI tumour cell line growth inhibition, 48 h
Activity calls are given as the source filed them. No stated cut-off is given here; in the data, active = GI50 up to about 1.1 µM and inactive = higher.

O=c1[nH]nc(-c2ccccc2)n1/N=C/c1cccnc1 = 57 µM (inactive)
CC1(C23CC4CC(CC(C4)C2)C3)n2c(=O)n(-c3ccccc3)c(=O)n2C1(C)C12CC3CC(CC(C3)C1)C2 (stereo unspecified) = > 100 µM (inactive)
C#CC(O)/C=C/C(O)CCCC(O)CC#CC(O)C#CCCCCC(O)/C=C/CCCC(=O)CCCCCCCCCCCCCCCC(O)C(O)C#CC(=O)O (stereo unspecified) = > 25 µM (inactive)
CCOc1ccc(/N=N/c2ccc(-c3ccc(/N=N/c4c(O)ccc5cc(S(=O)(=O)O)cc(S(=O)(=O)O)c45)cc3)cc2)cc1 = > 100 µM (inactive)
C[C@@H]1C(=O)C[C@H]2C(C)(C)CCC[C@]2(C)[C@@]1(O)CCc1ccoc1 = > 100 µM (inactive)

[ask] Consider the compound CN(C)CC(C)(C)C(=O)/C=C/c1ccccc1 and give its recorded GI50.
[reply] 16.2 µM (inactive)

[ask] Quickly give me recorded GI50 for Clc1cc(Cl)cc(C2ON=C(c3ccccc3)N2C23CC4CC(CC(C4)C2)C3)c1 (stereo unspecified)
[reply] > 10 µM (inactive)

[ask] Supply measured GI50 of COc1ccc(NC(=O)C(C)Oc2ccc(OCC3CCCCC3)cc2)cc1 (stereo unspecified) in your reply.
[reply] 34.1 µM (inactive)

[ask] Please indicate GI50 recorded for COc1ccccc1NC(=O)CSC(N)=O
[reply] 47.8 µM (inactive)

[ask] Indicate the recorded GI50 value for this compound: CN1C(=O)C(O)CC1c1ccc(C(F)(F)F)cc1 (stereo unspecified)
[reply] > 100 µM (inactive)

[ask] Tell me its GI50 given Cc1[nH]c(=O)[nH]c(=O)c1/C=C/C(=O)NC(CO)C[S+]([O-])Cc1ccccc1 (stereo unspecified) as the entry.
[reply] > 300 µM (inactive)

[ask] Tell me measured GI50 for CC1=CC2C(C(C)C)CC1C1C(=O)OC(=O)C21 (stereo unspecified) please.
[reply] 85.5 µM (inactive)

[ask] Give GI50 for the following compound: CCSC12OC3(CCCCCN3C1=O)C1C(=O)N(c3ccccc3)C(=O)C12 (stereo unspecified)
[reply] > 100 µM (inactive)

---

Tested on: HT-29
experiment_summary: NCI tumour cell line growth inhibition, 48 h
The source made the active and inactive calls. Rule as the data show it: active = GI50 up to about 1.1 µM and inactive = higher.
Listing: GI50 of selected compounds

CCNc1cc2oc(=O)cc(C(F)(F)F)c2cc1C = > 100 µM (inactive)
CCOC(=O)C(NCc1ccccc1)(NC(=O)c1ccccc1)C(F)(F)F (stereo unspecified) = > 100 µM (inactive)
[O-][s+]1c2c(Cc3ccccc3)c(Cc3ccccc3)c1CCc1cccc(c1)CC2 = 11.9 µM (inactive)
CCOC(=O)C(NC(=O)CC(C)C)(Nc1ccc(S(=O)(=O)Nc2nc(C)cc(C)n2)cc1)C(F)(F)F (stereo unspecified) = > 100 µM (inactive)
COc1ccccc1N1C(=O)C2C3c4ccccc4C(OC(C)=O)(c4ccccc43)C2C1=O (stereo unspecified) = > 100 µM (inactive)
COC(=O)C1(O)c2ccccc2N=C2C(=O)c3ccccc3N21 (stereo unspecified) [METHYLISATOID] = > 100 µM (inactive)

[ask] Give recorded GI50. CO[C@]12CC(=O)C3(C(C[C@H]4CC5CCC6=CC(=O)CC[C@]6(OC(C)=O)C5C[C@@]43C)C1)C1C[C@H]3[C@@H]4CCC5=CC(=O)CC[C@]5(OC(C)=O)[C@H]4CC[C@]3(C)C12 (stereo partly specified)
[reply] > 100 µM (inactive)

[ask] Tell me GI50 reported for CC(=O)NC(CCCN(Cc1ccccc1)C(=O)N(CCCl)N=O)C(=O)NCc1ccccc1 (stereo unspecified)
[reply] > 57.5 µM (inactive)

[ask] State its GI50 for this compound: O=C1N2Cc3c4ccc5c3CN3C(=O)N6Cc7c(ccc(c7CN1C6(c1ccccc1)C23c1ccccc1)OCCOCCNCCOCCO4)OCCOCCNCCOCCO5 (stereo unspecified)
[reply] 13.9 µM (inactive)

[ask] Name the recorded GI50 of the item COc1ccc(/C=N/CCC/N=C/c2ccc(OC)cc2O)c(O)c1 in your answer.
[reply] 97.3 µM (inactive)

[ask] Could you please provide reported GI50 for CC(C)(SCc1ccccc1)C(N)C(=O)O (stereo unspecified) ? Thanks!
[reply] > 100 µM (inactive)
